Could you please report measured protease stability score for the items listed next?
Test: protease stability score; higher = more stable; yeast display proteolysis, trypsin and chymotrypsin;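 note: log10 excess protease needed over predicted unfolded state with 0 meaning unfolded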
Give bare numbers.

>>> df
                                   residues  endpoint_result
0  DQHLEDVARQMQEVEKHNDPEEVSKQFDPNAHARYGDKEVHGHHQFKEQAKRRQTKAQFKVDKYSVSVDNGRVSMSRQYVNDHNGKPRTQTDTAHMEVHDGRITDVKYQSTS           -0.139
1  DEEAMKRFQELLDVLRTGDENRAKKLMDENVHLLVGDKEINGRDHAAKTMAQTYREMRIEYKTVKRDVTNGVVHVRMRYVKEHNGTPNDRVVLVEVRFHNGRLKVLNRNEKD            0.352
2  DKEENHMFQQAFTVEWTGDPEKVNRLMDPNAKIEVGEKRVHGMDKYAREVKREHDDMRVDVRTYSNDVHNGEVDVKVNYVKNNNGRPRHVSQSIRAHASNGKVKSVQVTERG           -0.299

Batch request: protease stability score for each of the following sequences.
1. DDTLKRRISELLRAEKHNDPDKINRLFDPNAHIEYGDHRIHGREELKRQITKRMKELRFRIDRVDLEVKGNHARLRIDMTQNHNGTPRRMILDVKINASNGTIHSVDVKLDG
2. DEETIRHEARKFQEDMKDGNHDEAVKYAPPNVKIQIGDKTFHGREQMKRFFKELRDEIDHVDLEHVTFHNGRLRVEVRFKINGQDFQVVFYFNYHNGQIENFKVQYRNEEEQQKVEG

Response:
[0.297, 0.182]

Record `DDDQLRKFLEILRSGNEDDMERQADKDARARVGDDHYHGREEVAHMIRNFLHRADHIEVKSVRFTGEKAKVDMHAVVNGQELRLIIEAEVHNGTLKHIVMKVTDEEHKRTLERAMS` . Reported protease stability score: 0.29
